Readings of composite z-score for the listed molecules
- ASSAY_METHOD_TEXT: binders of probe aFGF2 on microarray, primary screen, stem cell growth factor project, biochemical, small-molecule microarray, fluorescence 635/667 (AID 1067);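 note: measures binding of biotinylated aFGF2 protein to printed compounds on slides; z-score merges feature fluorescence and signal-to-noise across triplicate slides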
- MEASUREMENT_SETUP: higher = more signal

Below, each entry is followed by its recorded composite z-score result.
MOLECULE: [N-]=[N+]=Nc1ccccc1[C@@H]1OC(c2ccc(OCCCO)cc2)=N[C@]1(CCS(=O)(=O)c1ccccc1)C(=O)N1CCOCC1
RESULT: 0.269
//
MOLECULE: CC1CC/C=C\[C@H]2OC34C=CCN(Cc5ccccc5)C(=O)[C@H]3N(CCCCCO)C(=O)[C@@H]4C2C(=O)O1 (some centres undefined)
RESULT: -0.149
//
MOLECULE: Cc1ccccc1C(O)C1C=CC2C(=O)N(C)C(=O)C2N1N1CCCCC1 (centres undefined)
RESULT: 0.108

Query molecule follows.
Form field composite z-score, entry CCC[C@@H]1C=C(C(=O)O)[C@H](c2ccc(C)cc2)N1S(=O)(=O)c1ccc(C)cc1 : 0.0485

----------
- ASSAY_METHOD_TEXT: compound binding in COS7 lysate, probe aLAP1, primary screen, cell lysate, small-molecule microarray (AID 1124);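 note: lysate comes from COS7 cells expressing LAP1 and is applied at 0.3 µg/mL; score merges spot fluorescence near 667 nm with signal-to-noise over triplicate slides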
- MEASUREMENT_SETUP: probe aLAP1, fluorescence, higher = more signal
Reported values of composite z-score for individual entries
Field format: numeric only.

COMPOUND: COC(=O)[C@@]1(Cc2ccc(OC)cc2)[C@H]2c3cc(C(=O)N4CCCC4)n(CCc4c[nH]c5cc(F)ccc45)c3C[C@H]2CN1C(=O)c1ccccc1
QUANTITATIVE_RESULT: 0.959
--
COMPOUND: CCCC[C@@H]1C[C@H]1[C@@H](NC(=O)c1ccc(-c2ccccc2)cc1)c1ccc(-c2ccccc2)cc1
QUANTITATIVE_RESULT: -0.113
--
COMPOUND: O=C/C=C/c1ccc(Cl)cc1
QUANTITATIVE_RESULT: -0.565
--
COMPOUND: CN1C(=O)C2C(C1=O)C1C=C(CCCO)C2C(c2cccs2)N1C (stereo not drawn)
QUANTITATIVE_RESULT: 1.62
--
COMPOUND: CCOC(=O)C1=CCC(C(C)(C)C)N(S(=O)(=O)c2ccc(C)cc2)C1 (stereo not drawn)
QUANTITATIVE_RESULT: 0.368
--
COMPOUND: COCCOC(=O)N1C(=O)[C@@]2(c3ccccc31)[C@H](C(=O)Nc1nc3ccccc3s1)[C@H]1C(=O)O[C@H](c3ccccc3)[C@H](c3ccccc3)N1[C@@H]2c1ccc(OCCO)cc1
QUANTITATIVE_RESULT: 1.39
--
COMPOUND: COC(=O)[C@@]1(Cc2ccc(F)cc2)[C@H]2c3cc(C(=O)N4CCCC4)n(Cc4cccc5ccccc45)c3C[C@H]2CN1C(=O)c1ccccc1
QUANTITATIVE_RESULT: 0.513

# context switch: different compound, same composite z-score
Given item Cc1ccccc1C(O)C1C=CC2C(=O)N(C)C(=O)C2N1Nc1ccccc1 (stereo not drawn) , the value recorded as its composite z-score is 0.415

----------
- TESTED_ON: Carbonic anhydrase 2 (Homo sapiens)
- ASSAY_METHOD_TEXT: CAII small-molecule binders, profiling panel, biochemical, small-molecule microarray, Alexa647-labelled CAII (AID 1122)
- MEASUREMENT_SETUP: CAII-A647 binding fluorescence, higher = more signal
The entries below come with measured composite z-score values attached.
Kindly provide the number alone.

composite z-score recorded for this molecule, CC(C)c1ccc(NN2C(C(O)c3c(F)cccc3Cl)C=CC3C(=O)N(c4ccccc4)C(=O)C32)cc1 (stereo not given) , is 0.187

Form field composite z-score, entry CCOc1cc(C(O)C2C=CC3C(=O)N(c4ccccc4)C(=O)C3N2Nc2ccc([N+](=O)[O-])cc2)ccc1O (stereo not given) : 0.865

----------
- ASSAY_METHOD_TEXT: FRG1 promoter luciferase signal modulators, primary screen, FRG1 inhibition for FSHD, cell-based, C2C12 myotubes, firefly/Renilla luciferase, luminescence (AID 1084)
- MEASUREMENT_SETUP: higher = more signal, called active from +8 up or from −8 down
Here the recorded z-score is given for each entry.
I'd appreciate a reply containing only the number, no unit.

INPUT_SMILES: CC(C)C(=C=CC[C@H](O)c1cccc(OCCO)c1)C[C@H](O)COCc1ccccc1
z-score: 0.724

INPUT_SMILES: COCCCNC(=O)[C@@]1(C)c2ccccc2C(=O)N(Cc2cc(C(F)(F)F)cc(C(F)(F)F)c2)[C@H]1c1ccc(CO)cc1
z-score: -1.29

INPUT_SMILES: COc1ccc([Si](C)(C)[C@@H]2[C@@H](CC(=O)N(CCO)Cc3ccccc3)O[C@]3(C(=O)N(C)c4ccccc43)[C@H]2C)cc1
z-score: -2.19

Okay, now this compound:
Record O=C(O)[C@H]1C[C@H]2C(=O)NCC(=O)N2[C@H]1c1ccc(O)cc1 . Reported z-score: 3.81

----------
- ASSAY_METHOD_TEXT: P. aeruginosa biofilm formation inhibitors, primary screen, strain PAO1, LB-PBS medium, absorbance 600 nm (AID 1176); note: test concentration not given here
- MEASUREMENT_SETUP: P. aeruginosa PAO1 growth/biofilm, A600, 12 h; higher = more signal
Lab note: compare z-score against 0.5. Equal or greater, write y. Smaller, write n.

Assess whether reported z-score for CC(C)c1ccc(NN2C(C(O)c3c(F)cccc3Cl)C=CC3C(=O)N(c4ccccc4)C(=O)C32)cc1 (stereo not given) sits at 0.5 or higher.
y

Would you say C=CCC(OC(C)=O)[C@@H]1[C@@H](N(Cc2cccc3ccccc23)C(=O)c2ccc(C)cc2)c2cc(OCCCO)ccc2N1C(=O)Cc1ccc(OC)cc1 (stereo not given in full) shows z-score at minimum 0.5?
n

Determine whether this compound has z-score no lower than 0.5: CCCCC=C[C@@H](NC(=O)c1cccs1)c1ccccc1
n

Test whether the compound C=CCNC(=O)[C@H]1[C@@H]2C(=O)O[C@@H](c3ccccc3)[C@@H](c3ccccc3)N2[C@@H](c2ccc(O)cc2)[C@]12C(=O)N(C(=O)OCCOC)c1ccc(C#CCCO)cc12 records z-score of 0.5 or higher.
n

Please tell me: is the compound Cc1ccc(S[C@]2(C(=O)NCc3ccccc3)CC(=O)N(Cc3ccccc3Cl)[C@@H]2c2ccc(CO)cc2I)cc1 at or over 0.5 in terms of z-score?
y

Could you tell me if the measured z-score of COC(=O)[C@@]1(Cc2ccccc2)[C@H]2c3cc(C(=O)N4CCCC4)n(C)c3C[C@H]2CN1C(=O)c1ccccc1 reaches 0.5 or more?
y

Please tell me: is the compound COc1ccc(CCN2C(=O)[C@@]3(Cc4ccccc42)c2ccccc2C(=O)N(Cc2ccccc2Cl)[C@H]3c2ccc(CO)cc2)cc1 at or over 0.5 in terms of z-score?
y

Evaluate CCCCC(CC)C(O)C1C=CC2C(=O)N(c3ccccc3)C(=O)C2N1Nc1ccccc1 (stereo not given) : z-score at minimum 0.5?
n

Is the recorded value of z-score equal to or greater than 0.5 for this compound? COCCOC(=O)N1C(=O)[C@@]2(c3cc(C#CCC(C(=O)OC)C(=O)OC)ccc31)[C@H](C(=O)N1CCCCCCC1)[C@H]1C(=O)O[C@H](c3ccccc3)[C@H](c3ccccc3)N1[C@@H]2c1ccc(OCCO)cc1
y

Form field: z-score at least 0.5? Entry: CC(=O)NCCCC[C@@H]1NC(=O)[C@@H]2C[C@H](C(=O)NCCCCN(C)C)[C@H](c3ccc(O)cc3)N2C1=O
n

Quick check, z-score >= 0.5? CC(=O)C1=CCC(c2ccccc2)N(S(=O)(=O)c2ccc(C)cc2)C1 (stereo not given)
y

Please indicate if the recorded z-score for [N-]=[N+]=NCc1ccccc1C[C@@]1(C(=O)N2CCOCC2)N=C(c2ccc(OCCCO)cc2)O[C@@H]1c1ccccc1CN=[N+]=[N-] meets or exceeds 0.5.
y

Is reported z-score greater than or equal to 0.5 here: COc1ccc(CCNC(=O)[C@@]2(c3ccc([N+](=O)[O-])cc3)CC(=O)N(CC34CC5CC(CC(C5)C3)C4)[C@@H]2c2ccc(CO)cc2)cc1
y

Confirm if z-score reported for the compound CC(C)CNC(=O)[C@@H]1c2ccccc2C(=O)N(Cc2cc(C(F)(F)F)cc(C(F)(F)F)c2)[C@H]1c1ccc(CO)cc1 is 0.5 or above.
n

Tell me whether z-score is at least 0.5 here: CN1C(=O)C2C=CC(C(O)c3ccccn3)N(Nc3ccccc3)C2C1=O (stereo not given)
y

----------
z-score for assorted compounds
- ASSAY_METHOD_TEXT: FRG1 promoter luciferase signal modulators, primary screen, FRG1 inhibition for FSHD, cell-based, C2C12 myotubes, firefly/Renilla luciferase, luminescence (AID 1084)
- MEASUREMENT_SETUP: higher = more signal, called active from +8 up or from −8 down
// no unit string in output, number only

COMPOUND: Cc1ccc(S[C@]2(C(=O)NC3CC3)CC(=O)N(C3CCCCC3)[C@@H]2c2ccc(CO)cc2I)cc1
QUANTITATIVE_RESULT: -4.48
//
COMPOUND: CC(C)N1CC=CC23O[C@@H]4C=CCOC(=O)[C@@H]4[C@H]2C(=O)N(CCO)[C@@H]3C1=O (stereo not given in full)
QUANTITATIVE_RESULT: 0.188
//
COMPOUND: O=C1O[C@H](c2ccccc2)[C@H](c2ccccc2)N2[C@H]1[C@@H](C(=O)Nc1nc3ccccc3s1)[C@]1(C(=O)Nc3ccccc31)[C@H]2c1ccc(O)cc1
QUANTITATIVE_RESULT: 0.678

The reported value for Cc1c(NC(=O)CC#N)c(=O)n(-c2ccccc2)n1C in terms of z-score is 1.66

// CCOc1cc(C(O)C2C=CC3C(=O)N(c4ccccc4)C(=O)C3N2Nc2ccc([N+](=O)[O-])cc2)ccc1O (stereo not given) : z-score value = -0.374

Sure, the documented z-score for NCCCCCNC(=O)[C@H]1C[C@H]2C(=O)NCC(=O)N2[C@H]1c1cccc(OCCO)c1 is 1.11

// sample C[C@]1(C(=O)NCc2ccccc2)c2ccccc2C(=O)N(Cc2cc(F)cc(C(F)(F)F)c2)[C@H]1c1ccc(CO)cc1 , its z-score was -3.12

# z-score (compound: C=CCOC(=O)[C@H]1[C@@H]2C(=O)O[C@@H](c3ccccc3)[C@@H](c3ccccc3)N2[C@@H](c2ccc(OCCOC(=O)[C@@H]3C[C@@H]4C(=O)NCC(=O)N4[C@@H]3c3ccc(O)cc3)cc2)[C@]12C(=O)Nc1ccccc12 ) is -1.27

Short answer for CCOC(=O)C[C@H]1[C@H](OC(=O)c2ccc(-c3ccccc3)cc2)[C@@H](NC(=O)c2ccc(-c3ccccc3)cc2)c2cc(OCCCO)ccc2N1C(=O)Cc1ccc(OC)cc1 : z-score was 0.712

Recorded z-score (compound CCCN1C(=O)[C@]2(COC(c3ccc(OCCCO)cc3)=N2)Cc2ccccc21 ): -0.0593
